Overview of reported β-sheet amount across a group of molecules:
experiment: ATR-FT-IR determination of β-sheet content; assay type: physicochemical; conditions: 1 mg/mL in PBS lyophilized; integral at 1630 cm^-1 relative to 1650-1700 cm^-1
Where a SMILES comes first, the peptide text is derived from it. The star is where a group is joined. X1 = CC/C=C\C/C=C\C/C=C\C/C=C\C/C=C\CCCC(=O)*; Palmitoyl = CCCCCCCCCCCCCCCC(=O)*

INSERT INTO measurements (molecule, reported_property, val) VALUES
  ('CC/C=C\C/C=C\C/C=C\C/C=C\C/C=C\CCCC(=O)N[C@H](C(=O)N[C@H](C(=O)N[C@H](C(=O)N[C@@H](C)C(=O)N[C@@H](C)C(=O)N[C@@H](C)C(=O)N[C@@H](CCCCN)C(=O)N[C@@H](CCCCN)C(=O)N[C@@H](CCCCN)C(N)=O)C(C)C)C(C)C)C(C)C [Pat10] (X1-VVVAAAKKK-NH2)', 'β-sheet amount', '51%');

Consider the record given below.
Challenge: Find the measured β-sheet amount of CCCCCCCCCCCCCCCC(=O)N[C@@H](CCCCN)C(=O)N[C@@H](Cc1ccc(O)cc1)C(=O)N[C@H](C(=O)N[C@@H](Cc1c[nH]cn1)C(=O)N[C@@H](CCC(N)=O)C(=O)N[C@@H](CC(N)=O)C(=O)N[C@@H](Cc1ccc(O)cc1)C(=O)N[C@H](C(=O)N[C@@H](CCCCN)C(=O)N[C@@H](C)C(=O)N[C@@H](CC(C)C)C(=O)N[C@@H](C)C(=O)NCC(=O)N[C@@H](CCCCN)C(=O)N[C@@H](CC(C)C)C(=O)N[C@H](C(N)=O)C(C)C)[C@@H](C)O)[C@@H](C)CC [Pat26] (Palmitoyl-KYIHQNYTKALAGKLV-NH2) and report it.
Response given: 51%

* * *

test: TEM of peptide assemblies (fibril formation / assembly); type: physicochemical; conditions: peptide amphiphile
Where a SMILES comes first, the peptide text is derived from it. The star is where a group is joined. X1 = CC/C=C\C/C=C\C/C=C\C/C=C\C/C=C\CCCC(=O)*; X2 = CC/C=C\C/C=C\C/C=C\CCCCCCCC(=O)*; Fmoc = O=C(OCC1c2ccccc2-c2ccccc21)*; Palmitoyl = CCCCCCCCCCCCCCCC(=O)*; Lauroyl = CCCCCCCCCCCC(=O)*; Nonanoyl = CCCCCCCCC(=O)*
REPORTED_PROPERTY: Assembly

Answered cases to consult:
INSERT INTO measurements (molecule, val) VALUES
  ('CC/C=C\C/C=C\C/C=C\C/C=C\C/C=C\CCCC(=O)N[C@H](C(=O)N[C@H](C(=O)N[C@H](C(=O)N[C@@H](C)C(=O)N[C@@H](C)C(=O)N[C@@H](C)C(=O)N[C@@H](CCCCN)C(=O)N[C@@H](CCCCN)C(=O)N[C@@H](CCCCN)C(N)=O)C(C)C)C(C)C)C(C)C [Pat10] (X1-VVVAAAKKK-NH2)', 'Yes'),
  ('CCCCCCCCCCCCCCCC(=O)NCC(=O)N[C@@H](CCCCN)C(=O)N[C@H](C(=O)NCC(=O)N[C@@H](CO)C(=O)N[C@@H](CCCCN)C(N)=O)C(C)C [Pat30, C16-GKVGSK-NH2] (Palmitoyl-GKVGSK-NH2)', 'Yes'),
  ('CCCCCCCCCCCC(=O)N[C@H](C(=O)N[C@H](C(=O)N[C@H](C(=O)N[C@@H](C)C(=O)N[C@@H](C)C(=O)N[C@@H](C)C(=O)N[C@@H](CCCCN)C(=O)N[C@@H](CCCCN)C(=O)N[C@@H](CCCCN)C(N)=O)C(C)C)C(C)C)C(C)C [Pat7] (Lauroyl-VVVAAAKKK-NH2)', 'Yes'),
  ('CC/C=C\C/C=C\C/C=C\CCCCCCCC(=O)N[C@H](C(=O)N[C@H](C(=O)N[C@H](C(=O)N[C@@H](C)C(=O)N[C@@H](C)C(=O)N[C@@H](C)C(=O)N[C@@H](CCCCN)C(=O)N[C@@H](CCCCN)C(=O)N[C@@H](CCCCN)C(N)=O)C(C)C)C(C)C)C(C)C [Pat9] (X2-VVVAAAKKK-NH2)', 'No'),
  ('CC(C)[C@H](NC(=O)OCC1c2ccccc2-c2ccccc21)C(=O)N[C@H](C(=O)N[C@H](C(=O)N[C@@H](C)C(=O)N[C@@H](C)C(=O)N[C@@H](C)C(=O)N[C@@H](CCCCN)C(=O)N[C@@H](CCCCN)C(=O)N[C@@H](CCCCN)C(N)=O)C(C)C)C(C)C [Pat12] (Fmoc-VVVAAAKKK-NH2)', 'Yes');

Challenge: Find the measured Assembly of CCCCCCCCCCCCCCCC(=O)N[C@@H](CCCCN)C(=O)N[C@@H](Cc1ccc(O)cc1)C(=O)N[C@H](C(=O)N[C@@H](Cc1c[nH]cn1)C(=O)N[C@@H](CCC(N)=O)C(=O)N[C@@H](CC(N)=O)C(=O)N[C@@H](Cc1ccc(O)cc1)C(=O)N[C@H](C(=O)N[C@@H](CCCCN)C(=O)N[C@@H](C)C(=O)N[C@@H](CC(C)C)C(=O)N[C@@H](C)C(=O)NCC(=O)N[C@@H](CCCCN)C(=O)N[C@@H](CC(C)C)C(=O)N[C@H](C(N)=O)C(C)C)[C@@H](C)O)[C@@H](C)CC [Pat26] (Palmitoyl-KYIHQNYTKALAGKLV-NH2) and report it.
Response given: Yes

Challenge: Find the measured Assembly of CCCCCCCCCCCCCCCC(=O)N[C@@H](CCCNC(=N)N)C(=O)N[C@@H](CCCNC(=N)N)C(=O)N[C@@H](Cc1c[nH]c2ccccc12)C(=O)N[C@@H](CCC(N)=O)C(=O)N[C@@H](Cc1c[nH]c2ccccc12)C(=O)N[C@@H](CCCNC(=N)N)C(N)=O [Pat22, C16-RRWQWR-NH2] (Palmitoyl-RRWQWR-NH2) and report it.
Response given: Yes

Challenge: Find the measured Assembly of CCCCCCCCC(=O)N[C@H](C(=O)N[C@H](C(=O)N[C@H](C(=O)N[C@@H](C)C(=O)N[C@@H](C)C(=O)N[C@@H](C)C(=O)N[C@@H](CCCCN)C(=O)N[C@@H](CCCCN)C(=O)N[C@@H](CCCCN)C(N)=O)C(C)C)C(C)C)C(C)C [Pat8] (Nonanoyl-VVVAAAKKK-NH2) and report it.
Response given: Yes
